Tested on: HDAC4 phosphorylation in PANC-1 cells
Assay: HDAC4 phosphorylation (Meso Scale Discovery assay)
Settings: 10 ng/mL rHuTNF, 3 h
Quantity Measured: Inhibition of HDAC4 phosphorylation

| Molecule | Quantity Measured | Observed Measurement |
| --- | --- | --- |
| Cc1nc(Nc2ncc(C(=O)Nc3c(CF)csc3Cl)s2)cc(N2CCN(C)C(C)C2)n1 (racemic) [Compound E10] | Inhibition of HDAC4 phosphorylation | ++ |
| Cc1nc(Nc2ncc(C(=O)Nc3c(C)csc3Cl)s2)cc(N2CCN(CCO)CC2)n1 [Compound C7] | Inhibition of HDAC4 phosphorylation | + |
| Cc1nc(Nc2ncc(C(=O)Nc3c(C(F)F)csc3Cl)s2)cc(N2CCN(CCO)CC2)n1 [Compound E4] | Inhibition of HDAC4 phosphorylation | ++ |
| Cc1nc(Nc2ncc(C(=O)Nc3c(CF)csc3Cl)s2)cc(N2CCN(C)CC2)n1 [Compound E9] | Inhibition of HDAC4 phosphorylation | ++ |
